Read-out: Bcl-2 (BAD) gene, BAD (gene 572)
Experimental Details: LTEA_HepaRG_BAD: Life Technologies and Expression Analysis (LTEA) Assay for Bcl-2 (BAD) gene using HepaRG (AID 2283469)
Setup Conditions: mRNA level, 48 h; actives raise or lower the signal
The source made the active and inactive calls. Rule for the calls: active = hit-call score of the fitted dose curve at least 0.9, where 1 is the maximum; inactive = score below 0.9.
Possible outcomes: true (1) = active, false (0) = inactive

[[record]]
molecule = "Oc1ccc(Cl)cc1Cl"
category_label = "false (0)"

[[record]]
molecule = "Oc1c(Cl)c(Cl)c(Cl)c(Cl)c1Cl"
category_label = "false (0)"

[[record]]
molecule = "CN(C)CCO"
category_label = "false (0)"

[[record]]
molecule = "CC1=C2C[C@H]3[C@@H](CC=C4C[C@@H](O)CC[C@@]43C)[C@@H]2CC[C@]12O[C@@H]1C[C@H](C)CN[C@H]1[C@H]2C"
category_label = "false (0)"

[[record]]
molecule = "CCCCCCCCCc1ccc(O)cc1"
category_label = "false (0)"

[[record]]
molecule = "C=CC(=O)NCNC(=O)C=C"
category_label = "false (0)"

[[record]]
molecule = "CCCCCCOC(=O)c1ccccc1C(=O)OCCCCCC"
category_label = "false (0)"

[[record]]
molecule = "O=C(O)C(F)(F)C(F)(F)C(F)(F)C(F)(F)C(F)(F)F"
category_label = "false (0)"

[[record]]
molecule = "CCOC(=O)C(O)(c1ccc(Cl)cc1)c1ccc(Cl)cc1"
category_label = "false (0)"

[[record]]
molecule = "O=C(N[C@H]1CN2CCC1CC2)c1cc2ccoc2cn1"
category_label = "false (0)"

[[record]]
molecule = "ClC1=C(Cl)[C@]2(Cl)[C@@H]3[C@@H]4C[C@@H]([C@H]5O[C@@H]45)[C@@H]3[C@@]1(Cl)C2(Cl)Cl"
category_label = "false (0)"

[[record]]
molecule = "ClC1=C(Cl)[C@]2(Cl)[C@@H]3[C@@H](Cl)[C@H]4O[C@H]4[C@@H]3C1(Cl)C2(Cl)Cl"
category_label = "false (0)"

[[record]]
molecule = "Cc1ccc(O)c(C)c1"
category_label = "false (0)"

[[record]]
molecule = "CC(C)(O)C(=O)Nc1ccc([N+](=O)[O-])c(C(F)(F)F)c1"
category_label = "true (1)"

[[record]]
molecule = "C=CC(N)=O"
category_label = "false (0)"

[[record]]
molecule = "Cc1cc(-c2ccc(N)c(C)c2)ccc1N"
category_label = "false (0)"

[[record]]
molecule = "Oc1ccc(C(c2ccc(O)cc2)(C(F)(F)F)C(F)(F)F)cc1"
category_label = "false (0)"

[[record]]
molecule = "Nn1cnnc1"
category_label = "false (0)"

[[record]]
molecule = "CCSC(=O)N(CC)C1CCCCC1"
category_label = "false (0)"

[[record]]
molecule = "NS(=O)(=O)C(F)(F)C(F)(F)C(F)(F)C(F)(F)C(F)(F)C(F)(F)C(F)(F)C(F)(F)F"
category_label = "true (1)"

[[record]]
molecule = "CC(C)C(=O)OCC(C)(C)C(OC(=O)C(C)C)C(C)C (stereo unspecified)"
category_label = "false (0)"

